Recorded values, source ChEMBL document CHEMBL5303573.

# ASSAY COMMENT: The drug is tested on Eubacterium hallii strain: DSM3353 for biotransformation. The drug concentrations were measured before and after a 12-h incubation by liquid-chromatography-coupled mass spectrometry (LC–MS)
# COND: anaerobutyricum hallii, 2 µM
MEASURE NAME: Bacterial Biotransformation

# example entries with known answers
CC[C@@H](CO)NC(=O)[C@@H]1C=C2c3cccc4c3c(cn4C)C[C@H]2N(C)C1.O=C(O)/C=C\C(=O)O [METHYSERGIDE MALEATE] | Compound metabolized
COc1ccc2cc([C@H](C)C(=O)O)ccc2c1 | Compound NOT metabolized
CCN(CC)C(=O)/C(C#N)=C/c1cc(O)c(O)c([N+](=O)[O-])c1 | Compound metabolized
Cc1cc2c(cc1S(N)(=O)=O)S(=O)(=O)CCC2 | Compound NOT metabolized
O=C(O)COCCN1CCN(C(c2ccccc2)c2ccc(Cl)cc2)CC1 (stereo unspecified) | Compound NOT metabolized
N[C@@H](Cc1ccc(N(CCCl)CCCl)cc1)C(=O)O | Compound metabolized
COc1ccccc1OCC(O)CN1CCN(CC(=O)Nc2c(C)cccc2C)CC1 (stereo unspecified) | Compound NOT metabolized
CC(C)(C)NC[C@H](O)COc1nsnc1N1CCOCC1.O=C(O)/C=C\C(=O)O [TIMOLOL MALEATE] | Compound NOT metabolized
CCN(CC)CCNC(=O)c1cc(S(C)(=O)=O)ccc1OC [TIAPRIDE] | Compound NOT metabolized
CN(C)CCOC(C)(c1ccccc1)c1ccccn1.O=C(O)CCC(=O)O (stereo unspecified) [DOXYLAMINE SUCCINATE] | Compound NOT metabolized

Measured Bacterial Biotransformation, Clc1ccc(Cn2c(CN3CCCC3)nc3ccccc32)cc1 : Compound NOT metabolized

Measured Bacterial Biotransformation, N#Cc1ccc2c(c1)N(CCCN1CCC(O)CC1)c1ccccc1S2 : Compound NOT metabolized

Measured Bacterial Biotransformation, CC(CN(C)C)CN1c2ccccc2CCc2ccccc21.O=C(O)/C=C\C(=O)O (stereo unspecified) [TRIMIPRAMINE MALEATE] : Compound NOT metabolized

Measured Bacterial Biotransformation, COc1ccc(CCN(C)CCCC(C#N)(c2ccc(OC)c(OC)c2)C(C)C)cc1OC (stereo unspecified) : Compound metabolized

Measured Bacterial Biotransformation, CCN(CC)CCOCCOC(=O)C1(c2ccccc2)CCCC1.O=C(O)CC(O)(CC(=O)O)C(=O)O [CARBETAPENTANE CITRATE] : Compound metabolized

Measured Bacterial Biotransformation, COc1ccccc1OCCNCC(O)COc1cccc2[nH]c3ccccc3c12 (stereo unspecified) : Compound metabolized

Measured Bacterial Biotransformation, CCC(C)n1ncn(-c2ccc(N3CCN(c4ccc(OCC5COC(Cn6cncn6)(c6ccc(Cl)cc6Cl)O5)cc4)CC3)cc2)c1=O (stereo unspecified) : Compound NOT metabolized

Measured Bacterial Biotransformation, NC(=O)N1c2ccccc2CC(=O)c2ccccc21 [OXCARBAZEPINE] : Compound NOT metabolized

Measured Bacterial Biotransformation, CCc1nc(N)nc(N)c1-c1ccc(Cl)cc1 : Compound NOT metabolized

----------
# ASSAY COMMENT: The drug is tested on Bifidobacterium longum subsp. Infantis strain: CCUG52486 for biotransformation. The drug concentrations were measured before and after a 12-h incubation by liquid-chromatography-coupled mass spectrometry (LC–MS)
# COND: 2 µM
MEASURE NAME: Bacterial Biotransformation

# example entries with known answers
CC(N)C12CC3CC(CC(C3)C1)C2 (configuration not stated) | Compound NOT metabolized
CC[C@@H](CO)NC(=O)[C@@H]1C=C2c3cccc4c3c(cn4C)C[C@H]2N(C)C1.O=C(O)/C=C\C(=O)O [METHYSERGIDE MALEATE] | Compound metabolized
CCN(CC)C(=O)/C(C#N)=C/c1cc(O)c(O)c([N+](=O)[O-])c1 | Compound metabolized
Cc1cc(C)cc(OCC2CNC(=O)O2)c1 (configuration not stated) | Compound NOT metabolized

Measured Bacterial Biotransformation, NS(=O)(=O)c1cc2c(cc1Cl)N=C(CSCc1ccccc1)NS2(=O)=O [BENZTHIAZIDE] : Compound NOT metabolized

Measured Bacterial Biotransformation, COc1ccc2[nH]c([S+]([O-])Cc3ncc(C)c(OC)c3C)nc2n1 (configuration not stated) : Compound metabolized

Measured Bacterial Biotransformation, CC(C(=O)O)c1ccc2c(c1)Cc1cccnc1O2 (configuration not stated) : Compound metabolized

Measured Bacterial Biotransformation, CCCN1C[C@H](CSC)C[C@@H]2c3cccc4[nH]cc(c34)C[C@H]21.CS(=O)(=O)O [PERGOLIDE MESYLATE] : Compound NOT metabolized

Measured Bacterial Biotransformation, CCC(COC(=O)c1cc(OC)c(OC)c(OC)c1)(c1ccccc1)N(C)C.O=C(O)/C=C\C(=O)O (configuration not stated) : Compound metabolized

Measured Bacterial Biotransformation, CN1CCN(C2=Nc3cc(Cl)ccc3Nc3ccccc32)CC1 : Compound NOT metabolized

Measured Bacterial Biotransformation, COc1ccc(/C=C/C(=O)Nc2ccccc2C(=O)O)cc1OC : Compound NOT metabolized

Measured Bacterial Biotransformation, C#C[C@]1(OC(C)=O)CC[C@H]2[C@@H]3CCC4=C/C(=N/O)CC[C@@H]4[C@H]3CC[C@@]21CC [NORGESTIMATE] : Compound NOT metabolized

----------
# COND: bacteroides fragilis, 12 h, 2 µM
# Description: The drug is tested on Bacteroides fragilis strain: NCTC 9343 for biotransformation. The drug concentrations were measured before and after a 12-h incubation by liquid-chromatography-coupled mass spectrometry (LC–MS)
MEASURE NAME: Bacterial Biotransformation

# example entries with known answers
CC(=O)Nc1ccc(OC(C)=O)cc1 [DIACETAMATE] | Compound metabolized
CCOC(=O)[C@H](CCc1ccccc1)N[C@@H](C)C(=O)N1[C@H](C(=O)O)C[C@@H]2CCC[C@@H]21 | Compound NOT metabolized
c1ccc([C@H]2CN3CCSC3=N2)cc1 | Compound metabolized
O=C(O)COCCN1CCN(C(c2ccccc2)c2ccc(Cl)cc2)CC1 (stereo not given) | Compound metabolized

# context switch: different compound, same Bacterial Biotransformation
Measured Bacterial Biotransformation, CCN(CC)C(=O)C1(c2ccccc2)CC1CN (stereo not given) : Compound NOT metabolized

----------
# ASSAY COMMENT: The drug is tested on Bacteroides uniformis strain: ATCC8492 for biotransformation. The drug concentrations were measured before and after a 12-h incubation by liquid-chromatography-coupled mass spectrometry (LC–MS)
# COND: 2 µM
MEASURE NAME: Bacterial Biotransformation

COc1cc2c(c(OC)c1OC)-c1ccc(OC)c(=O)cc1[C@@H](NC(C)=O)CC2 [COLCHICINE] | Compound metabolized
N#Cc1ccc2c(c1)N(CCCN1CCC(O)CC1)c1ccccc1S2 [PERICIAZINE] | Compound NOT metabolized
N=C(N)NC(=O)Cc1c(Cl)cccc1Cl [GUANFACINE] | Compound NOT metabolized
CC[C@H](C)C(=O)O[C@H]1C[C@@H](C)C=C2C=C[C@H](C)[C@H](CC[C@@H]3C[C@@H](O)CC(=O)O3)[C@H]21 [LOVASTATIN] | Compound metabolized
CC(C)OC(=O)C(C)(C)Oc1ccc(C(=O)c2ccc(Cl)cc2)cc1 [FENOFIBRATE] | Compound metabolized

Measured Bacterial Biotransformation, NC(=O)N1c2ccccc2CC(=O)c2ccccc21 [OXCARBAZEPINE] : Compound metabolized

----------
# ASSAY COMMENT: The drug is tested on Bacteroides ovatus strain: ATCC8483 for biotransformation. The drug concentrations were measured before and after a 12-h incubation by liquid-chromatography-coupled mass spectrometry (LC–MS)
# COND: 2 µM
MEASURE NAME: Bacterial Biotransformation

# example entries with known answers
OCCN(CCO)c1nc(N2CCCCC2)c2nc(N(CCO)CCO)nc(N3CCCCC3)c2n1 [DIPYRIDAMOLE] | Compound NOT metabolized
O=C(O)CCC(=O)O.O=C(O[C@H]1CN2CCC1CC2)N1CCc2ccccc2[C@@H]1c1ccccc1 [SOLIFENACIN SUCCINATE] | Compound NOT metabolized
CCC(COC(=O)c1cc(OC)c(OC)c(OC)c1)(c1ccccc1)N(C)C.O=C(O)/C=C\C(=O)O (configuration not stated) | Compound metabolized
CCCCCOC(=O)Nc1nc(=O)n([C@@H]2O[C@H](C)[C@@H](O)[C@H]2O)cc1F [CAPECITABINE] | Compound NOT metabolized

Measured Bacterial Biotransformation, COc1ccc2[nH]c([S+]([O-])Cc3ncc(C)c(OC)c3C)nc2n1 (configuration not stated) [TENATOPRAZOLE] : Compound metabolized

Measured Bacterial Biotransformation, COc1cc2nc(N3CCN(C(=O)C4COc5ccccc5O4)CC3)nc(N)c2cc1OC.CS(=O)(=O)O (configuration not stated) [DOXAZOSIN MESYLATE] : Compound NOT metabolized

Measured Bacterial Biotransformation, CCN(CC)CCNC(=O)c1cc(S(C)(=O)=O)ccc1OC [TIAPRIDE] : Compound NOT metabolized

Measured Bacterial Biotransformation, CCN(CC)C(=O)/C(C#N)=C/c1cc(O)c(O)c([N+](=O)[O-])c1 [ENTACAPONE] : Compound metabolized

Measured Bacterial Biotransformation, CNCCC(Oc1ccc(C(F)(F)F)cc1)c1ccccc1 (configuration not stated) [FLUOXETINE] : Compound metabolized

Measured Bacterial Biotransformation, CC(C)NCC(O)COc1ccc(COCCOC(C)C)cc1.CC(C)NCC(O)COc1ccc(COCCOC(C)C)cc1.O=C(O)/C=C/C(=O)O (configuration not stated) [BISOPROLOL FUMARATE] : Compound NOT metabolized

Measured Bacterial Biotransformation, Cc1cc2c(cc1S(N)(=O)=O)S(=O)(=O)CCC2 : Compound NOT metabolized

Measured Bacterial Biotransformation, OC(CCN1CCCCC1)(c1ccccc1)C1CC2C=CC1C2 (configuration not stated) [BIPERIDEN] : Compound NOT metabolized

Measured Bacterial Biotransformation, COc1ccccc1N1CCN(CC(O)COc2cccc3ccccc23)CC1 (configuration not stated) [NAFTOPIDIL] : Compound NOT metabolized

Measured Bacterial Biotransformation, OC(c1cc(C(F)(F)F)nc2c(C(F)(F)F)cccc12)C1CCCCN1 (configuration not stated) [MEFLOQUINE] : Compound NOT metabolized

Measured Bacterial Biotransformation, CCCCCCOC(=O)/N=C(/N)c1ccc(NCc2nc3cc(C(=O)N(CCC(=O)OCC)c4ccccn4)ccc3n2C)cc1.CS(=O)(=O)O [DABIGATRAN ETEXILATE MESYLATE] : Compound NOT metabolized

Measured Bacterial Biotransformation, O=C(Nc1ccccc1)OCC(CN1CCCCC1)OC(=O)Nc1ccccc1 (configuration not stated) [DIPERODON] : Compound NOT metabolized

Measured Bacterial Biotransformation, COc1ccc([C@@H]2Sc3ccccc3N(CCN(C)C)C(=O)[C@@H]2OC(C)=O)cc1 [DILTIAZEM] : Compound metabolized

Measured Bacterial Biotransformation, C#C[C@]1(OC(C)=O)CC[C@H]2[C@@H]3CCC4=CC(=O)CC[C@@H]4[C@H]3CC[C@@]21C [NORETHINDRONE ACETATE] : Compound metabolized

Measured Bacterial Biotransformation, CCOc1ccccc1OCCN[C@H](C)Cc1ccc(OC)c(S(N)(=O)=O)c1.Cl [TAMSULOSIN HYDROCHLORIDE] : Compound NOT metabolized

Measured Bacterial Biotransformation, CCCCCNC(=N)N/N=C/c1c[nH]c2ccc(OC)cc12.O=C(O)/C=C\C(=O)O [TEGASEROD MALEATE] : Compound NOT metabolized

Measured Bacterial Biotransformation, O=C(NCc1ccccc1)OCCO [BURAMATE] : Compound NOT metabolized

Measured Bacterial Biotransformation, CC(=O)CC(c1ccccc1)c1c(O)c2ccccc2oc1=O (configuration not stated) [WARFARIN] : Compound NOT metabolized
